Data origin, for the record: PubChem BioAssay (NCI)

- Test system: PC-3 prostate
- PROCEDURE_DETAILS: NCI tumour cell line growth inhibition, 48 h
Please note: TRUE applies when TGI is 50 µM or greater, and FALSE applies otherwise.

Some solved cases for reference:
- COMPOUND: "COc1ccc(C2(CC(C)O)SCCCS2)cc1 (stereo not given)"
  ASSIGNED_LABEL: "TRUE"
- COMPOUND: "CCOC(=O)c1c(-c2ccc(OC)cc2)c(C#N)c(=S)n(C2OC(COC(C)=O)C(OC(C)=O)C(OC(C)=O)C2OC(C)=O)c1C (stereo not given)"
  ASSIGNED_LABEL: "TRUE"
- COMPOUND: "O=c1oc(-c2ccc(O)c(O)c2)cc2cccc(O)c12"
  ASSIGNED_LABEL: "FALSE"
- COMPOUND: "C/C(CC1C2CCCC1C2)=N\\NC(N)=O (stereo not given)"
  ASSIGNED_LABEL: "TRUE"
- COMPOUND: "COc1ccc(C(OCC2OC(n3cc(C)c(=O)[nH]c3=O)CC2n2cc(Cn3cc(F)c(=O)[nH]c3=O)nn2)(c2ccccc2)c2ccccc2)cc1 (stereo not given)"
  ASSIGNED_LABEL: "FALSE"

Alright, here's another compound for you.
Task item: In plain terms: is recorded TGI at least 50 µM for "O=C(CNc1ccccc1Cl)Nn1c(-c2ccccc2)nc2ccccc2c1=O" ?
Reply: TRUE

---

- Test system: EKVX NSCLC
- PROCEDURE_DETAILS: NCI tumour cell line growth inhibition, 48 h
Where a SMILES comes first, the peptide text is derived from it. The star is where a group is joined. Boc = CC(C)(C)OC(=O)*
RECORDED_ENDPOINT: TGI

- COMPOUND: "CC(C)(C)OC(=O)NCC(=O)NCC(=O)NCC(=O)NCC(=O)O (Boc-GGGG-OH)"
  RESULT: "> 100 µM"

Turning now to a further record.
Task item: # query: TGI of entry "Cc1ccccc1Nc1nc2c(s1)C(=O)c1ccccc1C2=O"
Reply: 21 µM

---

- Tested on: SF-295 CNS
- PROCEDURE_DETAILS: NCI tumour cell line growth inhibition, 48 h
Known TGI of a selection of molecules

- MOLECULE: "O=c1ncccn1C1C=C(CO)C(O)C1O (centres undefined)"
  TGI: "> 50 µM"
- MOLECULE: "CC(=O)N(C(C)=O)C1=C2c3ccccc3N(S(=O)(=O)c3ccccc3)C2n2c(=O)n(-c3ccccc3)c(=O)n2C1 (centres undefined)"
  TGI: "> 100 µM"
- MOLECULE: "O=C1C(Cl)=C(Nc2ccccc2)C(=O)c2ccccc21"
  TGI: "24.1 µM"
- MOLECULE: "CC1(C)OC2COC3(CNO)OC(C)(C)OC3C2O1 (centres undefined)"
  TGI: "> 100 µM"
- MOLECULE: "CC1(C)N=C(N)N=C(N)N1c1ccc(OCC(=O)Nc2ccccc2)c(Cl)c1"
  TGI: "> 100 µM"

Task item: What value of TGI has been recorded for this entry: "Cl[Si]1(Cl)Oc2ccccc2O[Si](Cl)(Cl)Oc2ccccc2O1"
Reply: 98.2 µM

Task item: Entry "Cc1ncc(C(=O)Nc2ccc(CN3CCN(C)CC3)c(C(F)(F)F)c2)cc1C#Cc1cnc(NC2CC2)c2ncccc12" please
Reply: 1.68 µM

Task item: Okay, and "C=CCOC(=O)CC[N+]1=CCC(c2ccccc2)(c2ccccc2)O1" ?
Reply: > 100 µM

Task item: Note, next up: "N#CC(C#N)=CNC(=S)c1ccncc1"
Reply: > 100 µM

Task item: Quick one: COc1ccc(C2(CC(C)O)SCCCS2)cc1 (centres undefined)
Reply: > 100 µM

Task item: Another: "O=C(/C=C/c1ccsc1)c1ccsc1"
Reply: > 100 µM

Task item: What about "CCCn1c(CN(Cc2nc3ccccc3n2CCC)Cc2nc3ccccc3n2CCC)nc2ccccc21" ?
Reply: 30.7 µM

Task item: And what about the molecule "O=C(c1ccc2ccccc2c1)c1c(C(F)(F)F)n([O-])c2ccc(Cl)cc2[n+]1=O" ?
Reply: 3.08 µM

Task item: Note, next up: N=S(c1ccccc1)c1ccccc1[N+](=O)[O-] (centres undefined)
Reply: 36.7 µM

Task item: # repeat for "COc1cc(NS(C)(=O)=O)ccc1N1Cc2cnc3ccc4[nH]c(C)cc1c4c23"
Reply: > 100 µM

Task item: Further, for Cc1cn(C2OC(C)(CO)C(O)C2O)c(=O)[nH]c1=O (centres undefined) ?
Reply: > 100 µM

Task item: Repeat with "CCOC(=N)n1c(=O)n(C2=NCCN2)c2ccccc21"
Reply: > 100 µM

Task item: Another molecule to check: "CN(C)C(=S)S"
Reply: > 100 µM

Task item: Try this molecule too: CC(=O)O[C@]12CCCCCC1C1(O)C(O)CCC[C@H]12 (some centres undefined)
Reply: > 100 µM

---

- System: UACC-257 melanoma
- PROCEDURE_DETAILS: NCI tumour cell line growth inhibition, 48 h
# reported GI50; entries follow

- COMPOUND: "O=S1(=O)NCCCN1CCNc1nccc(-c2c(-c3cccc(O)c3)nc3sccn23)n1"
  RECORDED_ENDPOINT: "GI50"
  RESULT: "2990 nM"
- COMPOUND: "CCCCCCCCCCCCCCCCCCNC(=O)[C@H]1CSC(c2cccs2)N1 (stereo not given in full)"
  RECORDED_ENDPOINT: "GI50"
  RESULT: "1250 nM"
- COMPOUND: "CCC(=C(c1ccc(OCCCN(C)C)cc1)c1ccc(OCCCN(C)C)cc1)c1ccc(Cl)cc1"
  RECORDED_ENDPOINT: "GI50"
  RESULT: "883 nM"
- COMPOUND: "CCSc1nc(N)c2cn[nH]c2n1"
  RECORDED_ENDPOINT: "GI50"
  RESULT: "71100 nM"

Consider the additional compound presented here.
Task item: State the recorded GI50 for this entry: "COCCOCCOCc1n(Cc2ccc3ccccc3n2)c2ccccc2[n+]1Cc1ccc2ccccc2c1"
Reply: 293 nM

---

- System: UACC-62 melanoma
- PROCEDURE_DETAILS: NCI tumour cell line growth inhibition, 48 h; in the data active means GI50 below about 0.43 µM; inactive means the rest
Assign a class; possible classes are 1 (yes) (active), 0 (no) (inactive)

// known answers, use as guide
- COMPOUND: "C=C1CC2(OC1=O)C(=O)N(CCCN1C(=O)C3(CC(=C)C(=O)O3)c3ccccc31)c1ccccc12 (centres undefined)"
  ASSIGNED_LABEL: "0 (no)"
- COMPOUND: "NC(=O)C1(N2CCCCC2)CCN(CCCC(=O)c2ccc(F)cc2)CC1"
  ASSIGNED_LABEL: "1 (yes)"
- COMPOUND: "CC(=O)[O-].CC(=O)[O-].CC(=O)[O-].CC(=O)[O-].[Mo+2].[Mo+2]"
  ASSIGNED_LABEL: "0 (no)"
- COMPOUND: "COc1ccc(/C=C2/CCc3cc4ccc(OC)cc4[o+]c32)c(O)c1"
  ASSIGNED_LABEL: "0 (no)"

Task item: Record request — test call for CCOC1Oc2ccccc2-c2oc(=O)c(Sc3ccc(C)cc3)cc21 (centres undefined)
Reply: 0 (no)

Task item: Request: "c1ccc2nc3c(cc4ccccn43)nc2c1"
Reply: 0 (no)

Task item: Proceed to "Cc1ccc2nc3c(Cl)c(C)c(=O)cc-3sc2c1"
Reply: 0 (no)

Task item: Try this compound too: "C[C@H](Cn1ncnn1)Nc1ncc2cc(Oc3ccc(F)cc3F)c(=O)n(C)c2n1"
Reply: 0 (no)

Task item: What would you report for "OB1OCc2cc(/C=C/c3cccc(C(F)(F)F)c3)ccc21" ?
Reply: 0 (no)

---

- System: T-47D breast
- PROCEDURE_DETAILS: NCI tumour cell line growth inhibition, 48 h
Reported GI50 values for the following molecules.

Worked cases, GI50 given:
- STRUCTURE_SMILES_STRING: "CCSc1nc(N)c2cn[nH]c2n1"
  RESULT: "17.6 µM"
- STRUCTURE_SMILES_STRING: "O=S1(=O)NCCCN1CCNc1nccc(-c2c(-c3cccc(O)c3)nc3sccn23)n1"
  RESULT: "23.3 µM"
- STRUCTURE_SMILES_STRING: "COc1ccc(-c2nnc(N3CCN(C(=O)CN4CCN(c5ccc(OC)cc5)CC4)CC3)nc2-c2ccc(OC)cc2)cc1"
  RESULT: "2.78 µM"

Task item: Form field: reported GI50 of "C=C(CN1CCc2ccccc2C1)c1ccc(C(=O)Nc2ccccc2N)cc1"
Reply: > 15.8 µM

Task item: Another molecule to check: "COc1ccc(/C=C2/CCc3cc4ccc(OC)cc4[o+]c32)c(O)c1"
Reply: 3.04 µM

Task item: Can you check "C[C@H](Cn1ncnn1)Nc1ncc2cc(Oc3ccc(F)cc3F)c(=O)n(C)c2n1" next?
Reply: > 25 µM

Task item: Same question for "COc1ccccc1/C=C/C(=O)/C=C/c1ccccc1O" please.
Reply: 0.488 µM
